Measured Activity of individual entries
- System: FL5.12
- Assay Method Text: Induction of apoptosis in mouse FL5.12A cells at 10 uM
- Type: functional
Note: unit % is implicit; provide only the numeric part.

Here are 2 compounds together with their reported answers.
[[record]]
compound_smiles = "Cl.NCCCCNCCCCNCc1c2ccccc2c(CNCCCCNCCCCN)c2ccccc12"
test_system = "FL5.12"
units_of_measure = "%"
reported_result = 8.64

[[record]]
compound_smiles = "N=C(N)NN"
test_system = "FL5.12"
units_of_measure = "%"
reported_result = 79.69


Lab note: next compound to report on.
# Activity of `NCCCCNCCCN` = 58.16

This collection of values is drawn from ChEMBL document CHEMBL1141574.
